# credit: patent US8362256B2

Test: in vivo
Conditions: male, Sprague-Dawley, rat, po, 20 mg/kg, Blood Concentration of compound A, 4 h
Method: Male Sprague-Dawley (SD) rats (weight: about 250 g, experimental animal certification of fitness: 0006473) were purchased from Shanghai Slaccas experimental animals limited liability company (certification number: SCXK (Hu) 2003-0003). […] Pharmacokinetics parameters of animal experiment of each group were calculated using InnaPhase Kinetica™ software (America).
EXPERIMENTAL_ENDPOINT: concentration at 4 h (ng/mL)
Reply numerically in ng/mL, unit not repeated.

IN: Consider the compound N#CC1(c2ccc(NC(=O)c3cccnc3NCc3ccncc3)cc2)CCCC1 [Mesylate of compound A] and give its recorded concentration at 4 h.
OUT: 30.5

----------
assay: in vivo; conditions: male, Sprague-Dawley, rat, po, 20 mg/kg, Cmax of compound A, Mean ± SD
EXPERIMENTAL_ENDPOINT: Cmax (ng/mL)
Kindly provide the numeric value in ng/mL only, without the unit symbol.

IN: Indicate its recorded Cmax; the compound in question is N#CC1(c2ccc(NC(=O)c3cccnc3NCc3ccncc3)cc2)CCCC1 [Mesylate of compound A]
OUT: 489

----------
assay: Bioavailability of compound A by oral administration (Example 4); assay type: in vivo, Sprague-Dawley (SD) rats; conditions: male, Sprague-Dawley, rat, plasma, po, 20 mg/kg, SD rats, 3 rats, read-out: Cmax, Mean ± SD
EXPERIMENTAL_ENDPOINT: Cmax (ng/mL)
Answer format: numeric, ng/mL implied, no suffix.

IN: Answer with reported Cmax of N#CC1(c2ccc(NC(=O)c3cccnc3NCc3ccncc3)cc2)CCCC1
OUT: 69.6

----------
test: in vivo; settings: male, Sprague-Dawley, rat, po, 20 mg/kg, Tmax of compound A
EXPERIMENTAL_ENDPOINT: Tmax (min)
Give the value, in units of min, as a plain number.

IN: Report Tmax for N#CC1(c2ccc(NC(=O)c3cccnc3NCc3ccncc3)cc2)CCCC1 [Mesylate of compound A]
OUT: 15

----------
assay: Bioavailability of compound A by oral administration (Example 4); type: in vivo, Sprague-Dawley (SD) rats; conditions: male, Sprague-Dawley, rat, plasma, po, 20 mg/kg, SD rats, individual rats, read-out: T1/2 (converted)
EXPERIMENTAL_ENDPOINT: half-life (h)
The answer is to be given in h; state only the numeric part.

IN: Specify measured half-life for N#CC1(c2ccc(NC(=O)c3cccnc3NCc3ccncc3)cc2)CCCC1 .
OUT: 2.13

----------
Assay: in vivo
Conditions: male, Sprague-Dawley, rat, po, 20 mg/kg, Tmax of compound A, Mean ± SD
Protocol: Male Sprague-Dawley (SD) rats (weight: about 250 g, experimental animal certification of fitness: 0006473) were purchased from Shanghai Slaccas experimental animals limited liability company (certification number: SCXK (Hu) 2003-0003). […] Pharmacokinetics parameters of animal experiment of each group were calculated using InnaPhase Kinetica™ software (America).
EXPERIMENTAL_ENDPOINT: Tmax (min)
Give the value in min but do not write min after it.

IN: Supply recorded Tmax for N#CC1(c2ccc(NC(=O)c3cccnc3NCc3ccncc3)cc2)CCCC1 [Mesylate of compound A] here.
OUT: 19.8

----------
content after 6 Months at Room Temperature values by entry
experiment: Stability in different conditions, content by HPLC; type: physicochemical; settings: HPLC; initial purity 99.6%
Give the value, in units of %, as a plain number.

Example results:
{"columns": ["MOLECULE", "MEASURED_NUMBER"],
 "data": [
  ["N#CC1(c2ccc(NC(=O)c3cccnc3NCc3ccncc3)cc2)CCCC1.O=C(O)/C=C\\C(=O)O [Maleate of compound A]", 96.4],
  ["N#CC1(c2ccc(NC(=O)c3cccnc3NCc3ccncc3)cc2)CCCC1.O=P(O)(O)O [Phosphate of compound A]", 97.3],
  ["N#CC1(c2ccc(NC(=O)c3cccnc3NCc3ccncc3)cc2)CCCC1 [Compound A]", 95.7],
  ["N#CC1(c2ccc(NC(=O)c3cccnc3NCc3ccncc3)cc2)CCCC1 [Mesylate of compound A]", 99.5],
  ["Cl.N#CC1(c2ccc(NC(=O)c3cccnc3NCc3ccncc3)cc2)CCCC1 [Hydrochloride of compound A]", 98.2]
]}

IN: In one line, give reported content after 6 Months at Room Temperature of the entry N#CC1(c2ccc(NC(=O)c3cccnc3NCc3ccncc3)cc2)CCCC1.O=C(O)CCC(=O)O [Succinate of compound A] .
OUT: 96.2

----------
assay: in vivo; conditions: male, Sprague-Dawley, rat, po, 20 mg/kg, AUC0→8 h of compound A, Mean ± SD
EXPERIMENTAL_ENDPOINT: AUC(0-t)
Mention the unit after the number when you answer.

IN: Fill in AUC(0-t) for record N#CC1(c2ccc(NC(=O)c3cccnc3NCc3ccncc3)cc2)CCCC1 [Mesylate of compound A]
OUT: 697 ng·h/mL

----------
assay: Bioavailability of compound A by oral administration (Example 4); type: in vivo, Sprague-Dawley (SD) rats; conditions: male, Sprague-Dawley, rat, plasma, po, 20 mg/kg, SD rats, 3 rats, read-out: AUC0→8h, Mean ± SD
EXPERIMENTAL_ENDPOINT: AUC(0-t) (ng·h/mL)
Hi! Could you send only the number? It should be in ng·h/mL, unit omitted.

IN: Identify measured AUC(0-t) associated with N#CC1(c2ccc(NC(=O)c3cccnc3NCc3ccncc3)cc2)CCCC1
OUT: 226

----------
assay: in vivo; conditions: male, Sprague-Dawley, rat, po, 20 mg/kg, T1/2 of compound A, Mean ± SD
EXPERIMENTAL_ENDPOINT: half-life (min)
Output spec: scalar in min, unitless text.

IN: Return reported half-life. Input molecule: N#CC1(c2ccc(NC(=O)c3cccnc3NCc3ccncc3)cc2)CCCC1 [Mesylate of compound A]
OUT: 52.2

----------
target: PDGFRβ (Homo sapiens, UniProt P09619); assay: ELISA tyrosine kinase inhibition; assay type: biochemical; settings: average of 3 experiments; read-out: IC50 ± SD, PDGFRβ
Sequence (P09619 33-1106, species assumed): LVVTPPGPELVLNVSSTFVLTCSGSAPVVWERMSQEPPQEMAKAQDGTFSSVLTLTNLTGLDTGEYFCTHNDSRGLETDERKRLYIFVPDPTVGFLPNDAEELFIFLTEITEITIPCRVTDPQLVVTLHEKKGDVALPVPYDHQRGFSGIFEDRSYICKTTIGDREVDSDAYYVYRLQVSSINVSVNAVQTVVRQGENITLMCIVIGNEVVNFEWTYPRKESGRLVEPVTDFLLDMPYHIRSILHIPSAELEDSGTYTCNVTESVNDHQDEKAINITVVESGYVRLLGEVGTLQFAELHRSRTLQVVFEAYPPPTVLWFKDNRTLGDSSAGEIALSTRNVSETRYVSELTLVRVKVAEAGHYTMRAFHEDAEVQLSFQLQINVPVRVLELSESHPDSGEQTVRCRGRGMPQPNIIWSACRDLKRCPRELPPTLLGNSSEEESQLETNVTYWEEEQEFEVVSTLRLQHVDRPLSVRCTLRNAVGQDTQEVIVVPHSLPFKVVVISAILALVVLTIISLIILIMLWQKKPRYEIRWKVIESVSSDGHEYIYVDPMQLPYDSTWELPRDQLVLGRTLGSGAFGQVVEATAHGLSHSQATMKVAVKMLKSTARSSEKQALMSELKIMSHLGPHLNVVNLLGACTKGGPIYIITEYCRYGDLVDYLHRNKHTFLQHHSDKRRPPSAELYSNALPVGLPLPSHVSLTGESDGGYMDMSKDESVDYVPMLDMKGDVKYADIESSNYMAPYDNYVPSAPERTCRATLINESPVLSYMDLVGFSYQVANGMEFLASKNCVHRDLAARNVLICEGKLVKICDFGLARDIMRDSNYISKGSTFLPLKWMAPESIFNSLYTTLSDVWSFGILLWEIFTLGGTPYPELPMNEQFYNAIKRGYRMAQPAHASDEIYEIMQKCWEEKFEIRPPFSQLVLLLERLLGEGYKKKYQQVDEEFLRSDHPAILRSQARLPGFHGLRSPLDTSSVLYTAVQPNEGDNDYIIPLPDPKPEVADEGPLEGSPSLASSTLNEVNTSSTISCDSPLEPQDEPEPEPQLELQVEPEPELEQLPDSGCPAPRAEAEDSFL
EXPERIMENTAL_ENDPOINT: pIC50
# log scale: pIC50 equals minus log10 of the concentration in mol/L

IN: # return recorded pIC50 for entry N#CC1(c2ccc(NC(=O)c3cccnc3NCc3ccncc3)cc2)CCCC1 [Mesylate of compound A]
OUT: 6.27

----------
experiment: Bioavailability of compound A by oral administration (Example 4); assay type: in vivo, Sprague-Dawley (SD) rats; settings: male, Sprague-Dawley, rat, plasma, po, 20 mg/kg, SD rats, 3 rats, read-out: MRT, Mean ± SD
EXPERIMENTAL_ENDPOINT: MRT

IN: State its MRT: N#CC1(c2ccc(NC(=O)c3cccnc3NCc3ccncc3)cc2)CCCC1
OUT: 3.3 h

----------
assay: in vivo; details: male, Sprague-Dawley, rat, po, 20 mg/kg, MRT of compound A, Mean ± SD
EXPERIMENTAL_ENDPOINT: MRT (h)
Write it as a number; the unit h goes unstated.

IN: In one line, give reported MRT of the entry N#CC1(c2ccc(NC(=O)c3cccnc3NCc3ccncc3)cc2)CCCC1 [Mesylate of compound A] .
OUT: 1.64

----------
experiment: in vivo; conditions: male, Sprague-Dawley, rat, po, 20 mg/kg, Blood Concentration of compound A, 8 h
EXPERIMENTAL_ENDPOINT: concentration at 8 h (ng/mL)
Enter your answer as a number in ng/mL; do not include the unit.

IN: Consider the compound N#CC1(c2ccc(NC(=O)c3cccnc3NCc3ccncc3)cc2)CCCC1 [Mesylate of compound A] . State its measured concentration at 8 h.
OUT: 29.9

----------
assay: Bioavailability of compound A by oral administration (Example 4); format: in vivo, Sprague-Dawley (SD) rats; conditions: male, Sprague-Dawley, rat, plasma, po, 20 mg/kg, SD rats, individual rats, read-out: Cmax
EXPERIMENTAL_ENDPOINT: Cmax (ng/mL)
// note: answer is a bare numeric in ng/mL

IN: For the compound N#CC1(c2ccc(NC(=O)c3cccnc3NCc3ccncc3)cc2)CCCC1 , give its measured Cmax value.
OUT: 60.8

----------
test: in vivo; conditions: male, Sprague-Dawley, rat, po, 20 mg/kg, MRT of compound A
EXPERIMENTAL_ENDPOINT: MRT (h)
Express your answer in h, writing the number without its unit.

IN: Tell us which MRT value is on record for N#CC1(c2ccc(NC(=O)c3cccnc3NCc3ccncc3)cc2)CCCC1 [Mesylate of compound A]
OUT: 1.18

----------
assay: Stability in different conditions, content by HPLC; type: physicochemical; conditions: HPLC; initial purity 99.6%
EXPERIMENTAL_ENDPOINT: content after 6 Months at 60° C. (%)
Report only the number, with the unit % understood.

Past entries and their recorded results:
{"columns": ["COMPOUND", "content after 6 Months at 60° C. [%]"],
 "data": [
  ["N#CC1(c2ccc(NC(=O)c3cccnc3NCc3ccncc3)cc2)CCCC1 [Compound A]", 92.2],
  ["N#CC1(c2ccc(NC(=O)c3cccnc3NCc3ccncc3)cc2)CCCC1.O=P(O)(O)O [Phosphate of compound A]", 94.2]
]}

Next:
IN: Note content after 6 Months at 60° C. for the compound shown: N#CC1(c2ccc(NC(=O)c3cccnc3NCc3ccncc3)cc2)CCCC1 [Mesylate of compound A]
OUT: 98.4
